Record form. Attribute: pKd. Fill in for each entry.
TARGET_OR_TEST_SYSTEM: LacI dimeric (lac repressor, tetramerization domain removed) (Escherichia coli, UniProt P03023 1-331)
Sequence (P03023 1-331): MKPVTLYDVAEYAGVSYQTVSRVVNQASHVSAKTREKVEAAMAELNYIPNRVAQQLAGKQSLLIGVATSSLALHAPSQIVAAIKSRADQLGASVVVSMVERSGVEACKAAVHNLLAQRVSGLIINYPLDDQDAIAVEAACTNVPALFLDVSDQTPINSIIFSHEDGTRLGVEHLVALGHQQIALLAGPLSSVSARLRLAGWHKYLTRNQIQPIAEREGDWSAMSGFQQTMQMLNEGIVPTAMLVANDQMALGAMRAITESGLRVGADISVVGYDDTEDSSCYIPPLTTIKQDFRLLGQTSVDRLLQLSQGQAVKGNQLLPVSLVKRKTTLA
TEST_NAME: BLI; no IPTG; BLI: PBS with 0.2% BSA, 0.05% Tween-20, pH 8.0, room temperature, LacI 0-40 nM, global 1:1 kinetic fit; HDX/MS: 50 mM MOPS, 200 mM NaCl, 0.5 mM TCEP, pH 7.0, equilibrated at 4 C
CONDITION_CONTEXT: protein: recombinant; 6xHis removed with TEV protease; chain copies: 2; label: 5'-biotin on forward strand; blunt
Give bare numbers, as −log10 of the molar value.

BINDER	pKd
Olac (LacO1 natural operator, BLI) (dsDNA) DNA 1: AGTAGTGGAATTGTGAGCGGATAACAATTGACATTGTGAGCGGATAACAAGATACTGAGCACATCAGC DNA 2: GCTGATGTGCTCAGTATCTTGTTATCCGCTCACAATGTCAATTGTTATCCGCTCACAATTCCACTACT	8.02

// next entry
Request: Return pKd for the following binder: Osyn (perfectly symmetric synthetic operator) (dsDNA) DNA 1: AGTAGTCTAGAATTGTGAGCGCTCACAATTCTAGAGTAGT DNA 2: ACTACTCTAGAATTGTGAGCGCTCACAATTCTAGACTACT
Result: 8.96

Value source: paper PMC9977783
